molecular target: HLA-A02:01 (human); experiment: competition with 125I-labelled probe peptide, purified HLA; details: remark: other sources report otherwise
pIC50: −log10 of the molar value.
quantityName: pIC50

LVVVGADGV ... 5.92
LVVVGACGV ... 5.92
